// data source = ChEMBL document CHEMBL1926565

- studyTarget: Telomerase reverse transcriptase (Homo sapiens)
- assayMethodText: Residual activity of human TERT in H1299 cells at 10 uM after 24 hrs by SEAP reporter gene assay

- chemicalSmiles: "O=C(CCl)Nc1ccc2c(c1NC(=O)c1ccc(F)cc1)C(=O)c1ccccc1C2=O"
  residual activity: "2%"
- chemicalSmiles: "Cc1ccc(C(=O)Nc2c(NC(=O)CN3CCCC3)ccc3c2C(=O)c2ccccc2C3=O)cc1"
  residual activity: "59%"
- chemicalSmiles: "Cc1ccc(C(=O)Nc2ccc3c(c2NC(=O)c2ccc(C)cc2)C(=O)c2ccccc2C3=O)cc1"
  residual activity: "97%"
- chemicalSmiles: "O=C(CCl)Nc1ccc2c(c1NC(=O)c1ccco1)C(=O)c1ccccc1C2=O"
  residual activity: "2%"
- chemicalSmiles: "O=C(CCCl)Nc1ccc2c(c1NC(=O)CCCl)C(=O)c1ccccc1C2=O"
  residual activity: "94%"
- chemicalSmiles: "Cc1ccc(C(=O)Nc2c(NC(=O)CN3CCN(CCO)CC3)ccc3c2C(=O)c2ccccc2C3=O)cc1"
  residual activity: "8%"
- chemicalSmiles: "O=C(CCl)Nc1ccc2c(c1NC(=O)c1ccno1)C(=O)c1ccccc1C2=O"
  residual activity: "4%"
- chemicalSmiles: "O=C(CCl)Nc1ccc2c(c1NC(=O)c1cccc(C(F)(F)F)c1)C(=O)c1ccccc1C2=O"
  residual activity: "4%"
- chemicalSmiles: "O=C(CCl)Nc1ccc2c(c1NC(=O)Cc1ccccc1)C(=O)c1ccccc1C2=O"
  residual activity: "9%"
- chemicalSmiles: "Cc1ccc(C(=O)Nc2c(NC(=O)CN3CCCCC3)ccc3c2C(=O)c2ccccc2C3=O)cc1"
  residual activity: "70%"
- chemicalSmiles: "Cc1ccc(C(=O)Nc2c(NC(=O)CN(C)C)ccc3c2C(=O)c2ccccc2C3=O)cc1"
  residual activity: "78%"
- chemicalSmiles: "O=C(CCCCl)Nc1ccc2c(c1NC(=O)CCCCl)C(=O)c1ccccc1C2=O"
  residual activity: "92%"
- chemicalSmiles: "Cc1ccccc1C(=O)Nc1c(NC(=O)CCl)ccc2c1C(=O)c1ccccc1C2=O"
  residual activity: "0%"
- chemicalSmiles: "Cc1ccc(C(=O)Nc2c(NC(=O)CN(C)CCc3ccccn3)ccc3c2C(=O)c2ccccc2C3=O)cc1"
  residual activity: "11%"
- chemicalSmiles: "Cc1cccc(C(=O)Nc2c(NC(=O)CCl)ccc3c2C(=O)c2ccccc2C3=O)c1"
  residual activity: "0%"
- chemicalSmiles: "O=C(CCl)Nc1ccc2c(c1NC(=O)CSc1ccccc1)C(=O)c1ccccc1C2=O"
  residual activity: "3%"
